Cited source: ChEMBL document CHEMBL5678802

assay: Drug concentration in nude mouse plasma xenografted with human HCT-116 cells at 1.1 mg/kg administered via pump for 9 days by LC-MS/MS analysis; format: ADME, organism-based; details: time 9 day
ASSAY_READOUT: concentration at 216 h
Remember to quote the unit after the number.

## Input Which concentration at 216 h value is on record for `Cc1nc(Nc2n[nH]c3c2CN(C(=O)N[C@H](CN(C)C)c2ccccc2)C3(C)C)c2sccc2n1` ?
## Output 5.6 ng/mL

* * *

test system: NCI-H1650; experiment: Inhibition of anchorage independent cell growth in human NCI-H1650 cells incubated for 6 days by Alamar blue reagent based fluorescence plate reader analysis; assay type: functional; details: NCI-H1650, 144 h
ASSAY_READOUT: pIC50
Conceptually, pIC50 converts a concentration in mol/L into minus its log10.

## Input Could you share which pIC50 value was measured for `Cc1nc(Nc2n[nH]c3c2CN(C(=O)N[C@H](CN(C)C)c2ccccc2)C3(C)C)c2sccc2n1` ?
## Output 8.25

* * *

molecular target: cGMP-dependent protein kinase 1 (Homo sapiens, UniProt Q13976); assay: Inhibition of human PRKG1 in presence of ATP
Sequence (Q13976 whole entry): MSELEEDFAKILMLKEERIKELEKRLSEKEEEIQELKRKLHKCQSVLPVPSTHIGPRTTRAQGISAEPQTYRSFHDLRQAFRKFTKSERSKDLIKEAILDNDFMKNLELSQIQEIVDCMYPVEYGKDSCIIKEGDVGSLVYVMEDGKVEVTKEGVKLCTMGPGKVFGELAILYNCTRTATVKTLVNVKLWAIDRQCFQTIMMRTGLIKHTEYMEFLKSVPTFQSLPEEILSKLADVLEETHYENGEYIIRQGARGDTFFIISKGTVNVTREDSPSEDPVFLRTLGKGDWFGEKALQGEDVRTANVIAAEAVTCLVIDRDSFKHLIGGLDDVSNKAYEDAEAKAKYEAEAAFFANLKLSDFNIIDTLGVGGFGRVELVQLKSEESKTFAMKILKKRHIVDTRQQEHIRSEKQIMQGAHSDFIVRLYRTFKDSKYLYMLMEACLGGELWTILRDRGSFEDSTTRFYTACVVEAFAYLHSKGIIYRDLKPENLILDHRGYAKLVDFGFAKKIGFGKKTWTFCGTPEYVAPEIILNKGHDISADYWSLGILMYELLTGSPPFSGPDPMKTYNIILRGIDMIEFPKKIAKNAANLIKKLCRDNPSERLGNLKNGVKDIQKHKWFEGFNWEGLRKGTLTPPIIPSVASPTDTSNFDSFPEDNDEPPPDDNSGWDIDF
ASSAY_READOUT: IC50 (µM)
Give the quantity in µM, number only.

## Input Consider the compound shown here: `Cc1nc(Nc2n[nH]c3c2CN(C(=O)N[C@H](CN(C)C)c2ccccc2)C3(C)C)c2sccc2n1` What is its recorded IC50?
## Output 0.034

* * *

biological target: Ribosomal protein S6 kinase alpha-1 (Homo sapiens, UniProt Q15418); test: Inhibition of human RSK1 in presence of ATP
Sequence (Q15418 whole entry): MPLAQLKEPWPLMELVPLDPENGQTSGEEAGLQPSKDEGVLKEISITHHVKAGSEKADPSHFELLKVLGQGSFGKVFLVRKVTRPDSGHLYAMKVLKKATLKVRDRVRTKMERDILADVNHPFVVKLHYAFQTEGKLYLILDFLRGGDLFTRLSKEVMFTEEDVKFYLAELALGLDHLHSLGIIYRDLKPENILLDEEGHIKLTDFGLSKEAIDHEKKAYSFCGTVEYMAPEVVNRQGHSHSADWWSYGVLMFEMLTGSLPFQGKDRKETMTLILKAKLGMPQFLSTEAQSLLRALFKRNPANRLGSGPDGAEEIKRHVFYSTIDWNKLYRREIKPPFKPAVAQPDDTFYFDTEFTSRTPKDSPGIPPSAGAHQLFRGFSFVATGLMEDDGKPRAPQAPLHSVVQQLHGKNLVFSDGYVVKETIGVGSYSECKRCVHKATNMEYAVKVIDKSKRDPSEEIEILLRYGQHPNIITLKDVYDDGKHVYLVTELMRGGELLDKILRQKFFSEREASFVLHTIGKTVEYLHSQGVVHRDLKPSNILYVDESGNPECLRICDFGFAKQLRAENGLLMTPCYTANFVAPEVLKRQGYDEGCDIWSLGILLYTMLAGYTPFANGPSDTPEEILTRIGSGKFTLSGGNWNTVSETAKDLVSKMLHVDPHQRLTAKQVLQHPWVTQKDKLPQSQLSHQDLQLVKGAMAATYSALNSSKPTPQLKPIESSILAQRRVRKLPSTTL
ASSAY_READOUT: pIC50
Entry type: numeric. Quantity: pIC50, the -log10 of concentration in molar units.

## Input Can you look up pIC50 on Ribosomal protein S6 kinase alpha-1 (Homo sapiens, UniProt Q15418) for Cc1nc(Nc2n[nH]c3c2CN(C(=O)N[C@H](CN(C)C)c2ccccc2)C3(C)C)c2sccc2n1 [PF-03758309] ?
## Output 8.70

* * *

test: Drug exposure in nude mouse xenografted with human HCT-116 cells at 1.1 to 3.3 mg/kg, sc administered for 6 days; format: ADME, organism-based; details: in vivo, dose 1.1-3.3 mg/kg, time 6 day, read-out: Drug uptake
ASSAY_READOUT: concentration at 144 h (nM)
Only the number, expressed in nM, is required.

## Input Sample Cc1nc(Nc2n[nH]c3c2CN(C(=O)N[C@H](CN(C)C)c2ccccc2)C3(C)C)c2sccc2n1 [PF-03758309] — what was its concentration at 144 h?
## Output 0.14

* * *

tested on: NCI-H441; test: Antiproliferative activity against human NCI-H441 cells assessed as inhibition of cell proliferation incubated for 3 days by CellTiter-Glo Luminescent Cell Viability Assay; type: functional, cell-based; details: NCI-H441, 72 h
ASSAY_READOUT: pIC50
Friendly reminder that pIC50 comes from taking -log10 of the concentration in mol/L.

## Input May I ask what pIC50 has been recorded for `Cc1nc(Nc2n[nH]c3c2CN(C(=O)N[C@H](CN(C)C)c2ccccc2)C3(C)C)c2sccc2n1` ?
## Output 8.04

* * *

tested on: SW948; assay: Antiproliferative activity against human SW948 cells assessed as inhibition of cell proliferation incubated for 3 days by CellTiter-Glo Luminescent Cell Viability Assay; type: functional, cell-based; settings: SW948, 72 h
ASSAY_READOUT: pIC50
Note on units: pIC50 is unitless, being -log10 of a concentration expressed in mol/L.

## Input Fill blank: measured pIC50 of the compound `Cc1nc(Nc2n[nH]c3c2CN(C(=O)N[C@H](CN(C)C)c2ccccc2)C3(C)C)c2sccc2n1` is ____.
## Output 8.37
